Consider the following compounds and their measured growth readings.
- Tested on: CCRF-CEM leukemia
- procedure_details: NCI-60 one-dose screen, 48 h (100 = growth as untreated, 0 = no growth, -100 = all killed)
- conditions_used: 10 µM
Compounds without any hit were thinned out: in the full panel of roughly 83,000, 20% have a hit. Where a SMILES comes first, the peptide text is derived from it. Bridges are numbered along the chain shown (N, C = ends). [ ]: non-standard residue; d: D form. The star is where a group is joined. ξ: configuration not given here. ξNMePhe(4-NMe2) = CNC(Cc1ccc(N(C)C)cc1)C(=O)O; Picolinoyl(3-OH) = O=C(c1ncccc1O)*; ξPip(4-oxo) = O=C1CCNC(C(=O)O)C1; Phg = N[CH](C(=O)O)c1ccccc1; Abu = CC[CH](N)C(=O)O
Output spec: scalar in %, unitless text.

compound	growth / %
COC(=O)c1cccc(Br)c1	98.2
CCCC1(c2ccccc2)NC(=O)NC1=O (stereo not given)	99.7
CNc1nc(NC)c2cn[nH]c2n1	5.44
CC(C)CCOC(=O)c1ccccc1	109
COc1cc(CN)ccc1O	93.1

INPUT: Look up growth for this compound: Cc1cc(N2CCC(N3CCCC3)CC2)nc(/N=C(\N)Nc2ccc(Cl)c(Cl)c2)n1
OUTPUT: -11.8

INPUT: Consider the compound OCCN(CCO)C(=S)S and give its measured growth.
OUTPUT: 104

INPUT: Entry under review: CCC1NC(=O)C(NC(=O)c2ncccc2O)C(C)OC(=O)C(c2ccccc2)NC(=O)C2CC(=O)CCN2C(=O)C(Cc2ccc(N(C)C)cc2)N(C)C(=O)C2CCCN2C1=O (stereo not given) (tested in a mixture with another compound) ({Picolinoyl(3-OH)}-T[Abu]P[ξNMePhe(4-NMe2)][ξPip(4-oxo)][Phg]; ester 1-C; configuration not given here) . Reported growth?
OUTPUT: 32

INPUT: Item under review: C=CCCCCCCCCCOC(C)=O . Reported growth?
OUTPUT: 101

INPUT: Quick one: growth of CC1CCC2C(C)(C)C3CC12CC1OC13C (stereo not given) ?
OUTPUT: 112

====

Here, each record is paired with measured growth data.
- Test system: HS 578T breast
- procedure_details: NCI-60 one-dose screen, 48 h (100 = growth as untreated, 0 = no growth, -100 = all killed)
- conditions_used: 10 µM
About 83,000 compounds went through this panel and 20% of them were active in at least one assay; those are over-represented in the sample as a whole.
Expressed in %, but write only the number.

INPUT: Item under review: O=C(Cc1ccccc1)Cc1ccccc1 . Reported growth?
OUTPUT: 106

INPUT: Reported growth, compound C=CCCCCCCCCCOC(C)=O : ____
OUTPUT: 99.7

INPUT: GET /values?readout=growth&item= CC(CC(=O)c1ccccc1)c1ccccc1 (centres undefined)
OUTPUT: 118

INPUT: Sample CC(=O)Nc1cccc(Cl)c1C — what was its growth?
OUTPUT: 92.9

INPUT: Requested field: growth. Item: Nc1nc(OCc2ccccc2)c2[nH]cnc2n1
OUTPUT: 93.6

====

- Test system: RPMI-8226 leukemia
- procedure_details: NCI-60 one-dose screen, 48 h
- conditions_used: 10 µM
About 83,000 compounds went through this panel and 20% of them were active in at least one assay; those are over-represented in the sample as a whole. Active and inactive are the calls of the source. The calls were made as follows: active = growth percent below 10; inactive = the rest.
Pick one and only one: t (active), f (inactive)

# example entries with known answers
compound	answer_label
CCn1c(=O)n(C)c2c(=O)n(C)c(=O)n(C)c21	f
COC(=O)c1ccc(C(C)C)cc1	f
O=C(CN1CCNCC1)N1CCOCC1	f
CCCCCCCCCCC(C)Br (stereo not drawn)	f
COc1ccc(-c2cc3c(nn2)-c2ccccc2C3=O)cc1	f
C=CCOC(=O)C(=O)OCC=C	f

INPUT: Record request — test call for CC(C)(O)C#CC#CC(C)(C)O
OUTPUT: f

INPUT: Dear all, I need the recorded test outcome for Cc1cc(/C=C/c2ccc3cc(N(C)C)ccc3[n+]2C)c(C)n1-c1ccccc1 , thank you.
OUTPUT: t

INPUT: Please indicate how the test categorized CN(C)/N=C/c1ccccc1O .
OUTPUT: f

INPUT: Outcome? COC(=O)c1cccc(Br)c1
OUTPUT: f

INPUT: Short answer needed: outcome of this test for CC1(C)N=C(N)N=C(N)N1c1cccc(Br)c1 ?
OUTPUT: f

INPUT: How did this test come out for c1c(-c2cc(C3CC3)[nH]n2)n[nH]c1C1CC1 ?
OUTPUT: f

INPUT: Hi, sorry to bother you, what did the test record for Nc1nc2c(c(-c3nc(N)nc4c3CCc3ccccc3-4)n1)CCc1ccccc1-2 ?
OUTPUT: f
